experiment: Binding affinity at rat imidazoline receptor I-2
Record form. Attribute: Ki. Fill in for each entry.

Problem: Query Ki for COc1ccc2[nH]c3c(c2c1)CCN=C3
Solution: 480 nM

Problem: Query Ki for Brc1ccc2c3c([nH]c2c1)CNCC3
Solution: 1290 nM

Problem: Query Ki for Cn1c2c(c3ccccc31)CCNCC2 [PNU-22394]
Solution: 1030 nM

Problem: Query Ki for COc1cc(Br)c2c3c([nH]c2c1)CNCC3
Solution: 1740 nM

Problem: Query Ki for Brc1cccc2c3c([nH]c12)C=NCC3
Solution: 17 nM

Problem: Query Ki for COc1cccc2c3c([nH]c12)CNCC3
Solution: 270 nM

Problem: Query Ki for COc1cccc2c3c([nH]c12)C=NCC3
Solution: 160 nM

Problem: Query Ki for NCc1c[nH]c2ccccc12
Solution: 3440 nM

Problem: Query Ki for c1ccc2c3c([nH]c2c1)CNCC3 [TRYPTOLINE]
Solution: 9.4 nM

Problem: Query Ki for Brc1ccc2[nH]c3c(c2c1)CCNC3
Solution: 2780 nM

Problem: Query Ki for Cn1c2c(c3ccccc31)CCNC2
Solution: 5.4 nM

Problem: Query Ki for Brc1cccc2[nH]c3c(c12)CCN=C3
Solution: 86 nM

Problem: Query Ki for NCCc1c[nH]c2ccccc12 [TRYPTAMINE]
Solution: 5400 nM

Problem: Query Ki for Brc1ccc2[nH]c3c(c2c1)CCN=C3
Solution: 790 nM
